Listed here: items and their measured cAMP EMax(obs.).
- experimental-system: human P1R (Homo sapiens, UniProt Q03431)
- Construct: expressed in transfected cells; host or cells: HKRK-B28 (porcine kidney LLC-PK1, stably transfected)
- assay-name: cAMP stimulation in HKRK-B28 cells
- Format: cell-based
- experimental-context: basal 4.0 ± 0.1 pmole/well not subtracted
Square brackets hold non-standard residues; d marks the D form. Peptide text beside a SMILES is read from it. hArg = N=C(N)NCCCC[C@H](N)C(=O)O; Aib = CC(C)(N)C(=O)O

compound	unit-info	cAMP EMax(obs.)
CC[C@H](C)[C@H](NC(=O)[C@H](CCC(=O)O)NC(=O)C(C)(C)NC(=O)[C@@H](NC(=O)C(C)(C)N)C(C)C)C(=O)N[C@@H](CCC(N)=O)C(=O)N[C@@H](CC(C)C)C(=O)N[C@@H](CCSC)C(=O)N[C@@H](Cc1c[nH]cn1)C(=O)N[C@@H](CCC(N)=O)C(=O)N[C@@H](CCCCNC(=N)N)C(N)=O [[Aib^1,3,M]PTH(1-11), AibValAibGluIleGlnLeuMetHisGlnHar] (H-[Aib]V[Aib]EIQLMHQ[hArg]-NH2)	pmole/well	243
CC[C@H](C)[C@H](NC(=O)[C@H](CCC(=O)O)NC(=O)[C@H](C)NC(=O)[C@@H](NC(=O)[C@H](C)N)C(C)C)C(=O)N[C@@H](CCC(N)=O)C(=O)N[C@@H](CC(C)C)C(=O)N[C@@H](CCSC)C(=O)N[C@@H](Cc1c[nH]cn1)C(=O)N[C@@H](CCC(N)=O)C(=O)N[C@@H](CCCCNC(=N)N)C(=O)N[C@@H](C)C(=O)N[C@@H](CCCCN)C(=O)N[C@@H](Cc1c[nH]c2ccccc12)C(N)=O [[M]PTH(1-14), reference compound] (H-AVAEIQLMHQ[hArg]AKW-NH2)	pmole/well	270
CC[C@H](C)[C@H](NC(=O)[C@H](CCC(=O)O)NC(=O)C(C)(C)NC(=O)[C@@H](NC(=O)C(C)(C)N)C(C)C)C(=O)N[C@@H](CCC(N)=O)C(=O)N[C@@H](CC(C)C)C(=O)N[C@@H](CCSC)C(=O)N[C@@H](Cc1c[nH]cn1)C(=O)N[C@@H](CCC(N)=O)C(N)=O [[Aib^1,3,M]PTH(1-10), [Aib^1,3,Gln^10]PTH(1-10)] (H-[Aib]V[Aib]EIQLMHQ-NH2)	pmole/well	111

----------
- experimental-system: human P1R (Homo sapiens)
- Construct: expressed in transfected cells; host or cells: HKRK-B28 (porcine kidney LLC-PK1, stably transfected)
- assay-name: Competition binding in HKRK-B28 cells
- experimental-context: HKRK-B28 cells; tracer 125I-[M]PTH(1-21)amide, 4 h at 4° C.; N.B. = no binding detected at 10 μm peptide
Square brackets hold non-standard residues; d marks the D form. Peptide text beside a SMILES is read from it. hArg = N=C(N)NCCCC[C@H](N)C(=O)O; Aib = CC(C)(N)C(=O)O
reported-metric: Binding IC50

molecule	endpoint-value
CSCC[C@H](NC(=O)[C@H](CC(C)C)NC(=O)[C@H](CCC(N)=O)NC(=O)C(C)(C)NC(=O)[C@H](CCC(=O)O)NC(=O)[C@H](C)NC(=O)[C@@H](NC(=O)[C@H](C)N)C(C)C)C(=O)N[C@@H](Cc1c[nH]cn1)C(=O)N[C@@H](CCC(N)=O)C(=O)N[C@@H](CCCCNC(=N)N)C(=O)N[C@@H](C)C(=O)N[C@@H](CCCCN)C(=O)N[C@@H](Cc1c[nH]c2ccccc12)C(N)=O [Aib-5] (H-AVAE[Aib]QLMHQ[hArg]AKW-NH2)	N.B.
CC[C@H](C)[C@H](NC(=O)[C@H](CCC(=O)O)NC(=O)[C@H](C)NC(=O)[C@@H](NC(=O)[C@H](C)N)C(C)C)C(=O)N[C@@H](CCC(N)=O)C(=O)N[C@@H](CC(C)C)C(=O)N[C@@H](CCSC)C(=O)N[C@@H](Cc1c[nH]cn1)C(=O)N[C@@H](CCC(N)=O)C(=O)NC(C)(C)C(=O)N[C@@H](C)C(=O)N[C@@H](CCCCN)C(=O)N[C@@H](Cc1c[nH]c2ccccc12)C(N)=O [Aib-11] (H-AVAEIQLMHQ[Aib]AKW-NH2)	N.B.

----------
- experimental-system: wild-type human P1R (hP1R-WT) (Homo sapiens)
- Construct: expressed in transfected cells; host or cells: COS-7 (transient, FuGENE 6)
- Sequence (Q03431 27-593): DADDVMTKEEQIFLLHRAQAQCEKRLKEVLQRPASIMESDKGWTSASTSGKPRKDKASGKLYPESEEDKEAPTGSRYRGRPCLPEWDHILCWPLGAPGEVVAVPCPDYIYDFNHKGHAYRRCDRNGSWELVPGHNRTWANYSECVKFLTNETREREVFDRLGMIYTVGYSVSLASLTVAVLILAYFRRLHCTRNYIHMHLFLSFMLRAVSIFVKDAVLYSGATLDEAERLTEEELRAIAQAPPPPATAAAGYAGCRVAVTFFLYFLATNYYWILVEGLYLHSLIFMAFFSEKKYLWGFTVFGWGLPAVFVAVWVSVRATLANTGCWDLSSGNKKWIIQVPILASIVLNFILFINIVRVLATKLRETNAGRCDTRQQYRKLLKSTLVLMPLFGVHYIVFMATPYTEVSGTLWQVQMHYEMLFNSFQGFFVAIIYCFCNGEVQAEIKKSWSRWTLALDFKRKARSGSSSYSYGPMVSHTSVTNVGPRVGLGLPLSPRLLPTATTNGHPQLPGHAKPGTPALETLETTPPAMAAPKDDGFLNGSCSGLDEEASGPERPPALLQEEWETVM
- assay-name: cAMP stimulation in COS-7 cells expressing hP1R-WT
- Format: cell-based
- experimental-context: hP1R-WT, basal 10.3 ± 1.1, asterisk = plateau not attained
Square brackets hold non-standard residues; d marks the D form. Peptide text beside a SMILES is read from it. hArg = N=C(N)NCCCC[C@H](N)C(=O)O; Aib = CC(C)(N)C(=O)O

compound	unit-info	cAMP EMax(obs.)
CC[C@H](C)[C@H](NC(=O)[C@H](CCC(=O)O)NC(=O)C(C)(C)NC(=O)[C@@H](NC(=O)C(C)(C)N)C(C)C)C(=O)N[C@@H](CCC(N)=O)C(=O)N[C@@H](CC(C)C)C(=O)N[C@@H](CCSC)C(=O)N[C@@H](Cc1c[nH]cn1)C(=O)N[C@@H](CCC(N)=O)C(=O)N[C@@H](CCCCNC(=N)N)C(N)=O [[Aib^1,3,M]PTH(1-11), AibValAibGluIleGlnLeuMetHisGlnHar] (H-[Aib]V[Aib]EIQLMHQ[hArg]-NH2)	pmole/well	190
CC[C@H](C)[C@H](NC(=O)[C@H](CCC(=O)O)NC(=O)C(C)(C)NC(=O)[C@@H](NC(=O)C(C)(C)N)C(C)C)C(=O)N[C@@H](CCC(N)=O)C(=O)N[C@@H](CC(C)C)C(=O)N[C@@H](CCSC)C(=O)N[C@@H](Cc1c[nH]cn1)C(=O)N[C@@H](CCC(N)=O)C(=O)N[C@@H](CCCCNC(=N)N)C(=O)N[C@@H](C)C(=O)N[C@@H](CCCCN)C(=O)N[C@@H](Cc1c[nH]c2ccccc12)C(N)=O [[Aib^1,3,M]PTH(1-14)] (H-[Aib]V[Aib]EIQLMHQ[hArg]AKW-NH2)	pmole/well	240
CC[C@H](C)[C@H](NC(=O)[C@H](CCC(=O)O)NC(=O)[C@H](C)NC(=O)[C@@H](NC(=O)[C@H](C)N)C(C)C)C(=O)N[C@@H](CCC(N)=O)C(=O)N[C@@H](CC(C)C)C(=O)N[C@@H](CCSC)C(=O)N[C@@H](Cc1c[nH]cn1)C(=O)N[C@@H](CCC(N)=O)C(=O)N[C@@H](CCCCNC(=N)N)C(=O)N[C@@H](C)C(=O)N[C@@H](CCCCN)C(=O)N[C@@H](Cc1c[nH]c2ccccc12)C(N)=O [[M]PTH(1-14), reference compound] (H-AVAEIQLMHQ[hArg]AKW-NH2)	pmole/well	240
CC[C@H](C)[C@H](NC(=O)[C@H](CCC(=O)O)NC(=O)C(C)(C)NC(=O)[C@@H](NC(=O)C(C)(C)N)C(C)C)C(=O)N[C@@H](CCC(N)=O)C(=O)N[C@@H](CC(C)C)C(=O)N[C@@H](CCSC)C(=O)N[C@@H](Cc1c[nH]cn1)C(=O)N[C@@H](CCC(N)=O)C(N)=O [[Aib^1,3,M]PTH(1-10), [Aib^1,3,Gln^10]PTH(1-10)] (H-[Aib]V[Aib]EIQLMHQ-NH2)	pmole/well	120

----------
- assay-name: Circular dichroism spectroscopy (helical content)
- Format: physicochemical
- experimental-context: 50 mM phosphate buffer with trifluoroethanol (20%); from elipticity at 222 nM
Square brackets hold non-standard residues; d marks the D form. Peptide text beside a SMILES is read from it. hArg = N=C(N)NCCCC[C@H](N)C(=O)O; Aib = CC(C)(N)C(=O)O
reported-metric: helical residues (%), Phos + TFE

compound	endpoint-value
CC[C@H](C)[C@H](NC(=O)[C@H](CCC(=O)O)NC(=O)C(C)(C)NC(=O)[C@@H](NC(=O)C(C)(C)N)C(C)C)C(=O)N[C@@H](CCC(N)=O)C(=O)N[C@@H](CC(C)C)C(=O)N[C@@H](CCSC)C(=O)N[C@@H](Cc1c[nH]cn1)C(=O)N[C@@H](CCC(N)=O)C(=O)N[C@@H](CCCCNC(=N)N)C(N)=O [[Aib^1,3,M]PTH(1-11), AibValAibGluIleGlnLeuMetHisGlnHar] (H-[Aib]V[Aib]EIQLMHQ[hArg]-NH2)	57
CC[C@H](C)[C@H](NC(=O)[C@H](CCC(=O)O)NC(=O)C(C)(C)NC(=O)[C@@H](NC(=O)C(C)(C)N)C(C)C)C(=O)N[C@@H](CCC(N)=O)C(=O)N[C@@H](CC(C)C)C(=O)N[C@@H](CCSC)C(=O)N[C@@H](Cc1c[nH]cn1)C(=O)N[C@@H](CCC(N)=O)C(=O)N[C@@H](CCCCNC(=N)N)C(=O)N[C@@H](C)C(=O)N[C@@H](CCCCN)C(=O)N[C@@H](Cc1c[nH]c2ccccc12)C(N)=O [[Aib^1,3,M]PTH(1-14)] (H-[Aib]V[Aib]EIQLMHQ[hArg]AKW-NH2)	56
CC[C@H](C)[C@H](NC(=O)[C@H](CCC(=O)O)NC(=O)[C@H](C)NC(=O)[C@@H](NC(=O)[C@H](C)N)C(C)C)C(=O)N[C@@H](CCC(N)=O)C(=O)N[C@@H](CC(C)C)C(=O)N[C@@H](CCSC)C(=O)N[C@@H](Cc1c[nH]cn1)C(=O)N[C@@H](CCC(N)=O)C(=O)N[C@@H](CCCCNC(=N)N)C(=O)N[C@@H](C)C(=O)N[C@@H](CCCCN)C(=O)N[C@@H](Cc1c[nH]c2ccccc12)C(N)=O [[M]PTH(1-14), reference compound] (H-AVAEIQLMHQ[hArg]AKW-NH2)	42
